- System name: UniProtKB Q9BVG3
- Experiment description: inhibitors of TRIM62-driven CARD9 ubiquitylation, dose response, CARD9-TRIM62 disruptor project, biochemical, ubiquitin ELISA, AlphaLISA TUBE (AID 1259342);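 further: potency is for inhibitors that reduce CARD9 ubiquitylation signal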
- Condition parameters: TRIM62-mediated CARD9 ubiquitylation, AlphaLISA TUBE detection
Activity calls are given as the source filed them.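 How the source made its calls: active means fitted half-maximal inhibitory concentration AC50 at most ten times the top concentration tested; inconclusive means flat fit with 30 to 70% inhibition, or unusable fit; inactive means AC50 above ten times the top concentration.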
Classes used: y = active, n = inactive

| Compound | Group |
| --- | --- |
| C(=C\c1ccco1)/c1nc2ccccc2[nH]1 | y |
| O=S(=O)(Nc1nc2ccc(S(=O)(=O)N3CCCCC3)cc2s1)c1ccccc1 | y |
| O=S(=O)(Nc1nccs1)c1ccc(-n2cccc2)cc1 | y |
| Nc1c2c(nc3ccccc13)CCN(Cc1ccccc1)C2 | n |
| Cc1ccc(Cc2cnc(N)s2)o1 | n |
| COc1ccc(N2CC3=C(N2)c2ccccc2CC3)cc1 | y |
| CCc1nc(OCc2ccco2)c2sc3nc4c(cc3c2n1)COC(C)(C)C4 | n |
| Cc1ccc(-c2cc(C(=O)Nc3ccccn3)c3ccccc3n2)o1 | y |
| CC1(C)Cc2ccccc2-c2nc(-c3ccccc3)oc(=O)c21 | y |
| O=C(COC(=O)CCC(=O)c1cccs1)NCc1ccco1 | y |
| NC(=O)C1(N2CCCCC2)CCN(c2ncc(NC(=O)c3ccccc3)cc2C(=O)O)CC1 | y |
| O=C(Nc1nccs1)c1cc(-c2ccccn2)nc2c(Cl)cccc12 | y |
| Cc1nn2c(c1-c1ccccc1)NC(c1ccco1)=CC2c1ccco1 (stereo unspecified) | y |
| Cc1ccc(C)n1NC(=O)c1ccccc1O | y |
| CC1Cc2ccccc2N1CC(=O)NC(=O)NC(C)(C)C (stereo unspecified) | n |
| O=C(Cc1ccc(S(=O)(=O)N2CCOCC2)s1)Nc1nc2c(s1)CCCC2 | y |
| NC(=O)C1(N2CCCCC2)CCN(c2ncc(NC(=O)c3ccc(Cl)cc3)cc2C(=O)O)CC1 | y |
| COc1ccc(-n2c(C)c3c(OC)cccc(=O)c3c2C)cc1 | y |
| O=C(Nc1nccs1)c1cc(-c2ccco2)nc2ccccc12 | y |
| COc1ccc2nc(-c3ccco3)c(-c3ccco3)nc2c1 | y |
| O=C1c2ccccc2-c2nc3ccccc3nc21 | n |
| COc1ccc(F)c(CN2C[C@H]3CC[C@@H]2CN(Cc2cscn2)C3)c1 | n |
| CC1=CCC(C(=O)O)C(C(=O)NC2CCCCC2)C1 (stereo unspecified) | y |
| O=C(Cn1c(=O)cc(C(=O)N2CCc3ccccc3C2)c2ccccc21)NCc1ccc2c(c1)OCO2 | y |
| O=C(O)COc1ccc(-n2cccc2)cc1 | y |
| NC(=O)C1(N2CCCCC2)CCN(c2ncc(NC(=O)c3cccs3)cc2C(=O)O)CC1 | y |
| Cc1sc2ncnc(SCc3ccco3)c2c1C | y |
| CCCC(=O)NCc1ccc2c(c1)cc(C)n2C | n |
| CC(C)(C)c1ccc(-c2nc(C#N)c(NCc3ccncc3)o2)cc1 | y |
| COc1ccc(-c2ccc(CCC(=O)O)o2)cc1 | y |
| CC(=O)c1cccc(OCC(=O)N(C)CC(=O)NCc2ccco2)c1 | y |
| C=CC(=O)N1CCCC2(CCN(CCN3CCCC3)C2=O)C1 (stereo unspecified) | y |
| O=C(O)Cc1c[nH]c2cccc(O)c12 | y |
| COc1ccc(S(=O)(=O)N2CCN(C(=O)c3cc4c(s3)CCC4)CC2)cc1 | y |
| CC(=O)c1sc2nc(-c3ccco3)ccc2c1N | y |
| O=S(=O)(c1ccc2nc(-c3ccco3)c(-c3ccco3)nc2c1)N1CCOCC1 | y |
| O=C(O)C1Oc2cc3ccccc3cc2O1 | y |
| NC(=O)C1(N2CCCCC2)CCN(c2ncc(NC(=O)c3cccc(Cl)c3)cc2C(=O)O)CC1 | y |
| O=C(Nc1nc(-c2ccco2)c(-c2ccco2)s1)C1CCC1 | y |
| O=C(Nc1nncs1)c1cc(-c2ccco2)nc2ccccc12 | y |
| O=C(O)c1ccccc1/C=N/NC(=O)c1cc(-c2ccco2)nc2ccccc12 | y |
| CC(=O)Nc1ccc(Nc2nc(-c3nnc(-c4cccc(C)c4)o3)nc3ccccc23)cc1 | y |
| Cc1ccc(C(=O)Nc2cnc(N3CCC(C(N)=O)(N4CCCCC4)CC3)c(C(=O)O)c2)cc1 | y |
| O=C(Nc1nc(-c2ccco2)c(-c2ccco2)s1)c1ccco1 | y |
| O=C(COC(=O)c1ccc(S(=O)(=O)NCc2ccco2)cc1)Nc1ccc(Cl)cn1 | y |
| CCOc1cc2c(C#N)c(N3CCNCC3)nc(N)c2c(N)n1 | n |

###

- System name: E3 ubiquitin-protein ligase TRIM62 (Homo sapiens) (UniProt Q9BVG3)
- Sequence (Q9BVG3 whole entry, looked up): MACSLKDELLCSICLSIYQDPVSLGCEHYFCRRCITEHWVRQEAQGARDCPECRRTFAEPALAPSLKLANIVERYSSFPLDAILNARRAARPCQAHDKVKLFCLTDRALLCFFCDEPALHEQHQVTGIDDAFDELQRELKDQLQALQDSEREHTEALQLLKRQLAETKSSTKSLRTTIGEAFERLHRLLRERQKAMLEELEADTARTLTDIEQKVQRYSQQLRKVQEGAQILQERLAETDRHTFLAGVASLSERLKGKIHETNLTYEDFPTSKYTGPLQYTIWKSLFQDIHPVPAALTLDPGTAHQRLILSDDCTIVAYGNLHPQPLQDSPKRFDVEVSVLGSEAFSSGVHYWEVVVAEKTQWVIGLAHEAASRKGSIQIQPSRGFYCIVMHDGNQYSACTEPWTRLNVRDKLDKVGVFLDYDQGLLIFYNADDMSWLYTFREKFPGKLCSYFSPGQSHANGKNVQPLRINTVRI
- Experiment description: inhibitors of TRIM62-driven CARD9 ubiquitylation, dose response, CARD9-TRIM62 disruptor project, biochemical, ubiquitin ELISA, AlphaLISA TUBE (AID 1259342);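 further: potency is for inhibitors that reduce CARD9 ubiquitylation signal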
- Condition parameters: TRIM62-mediated CARD9 ubiquitylation, AlphaLISA TUBE detection
Activity calls are given as the source filed them.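 The calls were made as follows: active = fitted half-maximal inhibitory concentration AC50 at most ten times the top concentration tested; inconclusive = flat fit with 30 to 70% inhibition, or unusable fit; inactive = AC50 above ten times the top concentration.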
Classes used: label 1 for active, label 0 for inactive

| Molecule | Group |
| --- | --- |
| O=c1oc(-c2ccccc2)nc2sc3c(c12)CCC3 | label 0 |
| C[C@H](CO)N1C[C@H](C)[C@@H](CN(C)CC2CCCCC2)OCCCC[C@H](C)Oc2ccc(NS(C)(=O)=O)cc2C1=O | label 0 |
| O=C(COC(=O)c1cc(-c2cccs2)nc2ccccc12)NCc1ccco1 | label 1 |
| COc1cccc(NC(=O)CN(C)C(=O)c2cc3c(s2)CCC3)c1 | label 1 |
| CCc1cc2c(=O)n(Cc3ccco3)c(SC)nc2s1 | label 0 |
| Cc1ccc(-c2nc(C)sc2CC(=O)NCc2ccco2)cc1 | label 1 |

###

- System name: UniProt:Q9BVG3
- Experiment description: inhibitors of TRIM62-driven CARD9 ubiquitylation, dose response, CARD9-TRIM62 disruptor project, biochemical, ubiquitin ELISA, AlphaLISA TUBE (AID 1259342);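 further: potency is for inhibitors that reduce CARD9 ubiquitylation signal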
- Condition parameters: TRIM62-mediated CARD9 ubiquitylation, AlphaLISA TUBE detection
Activity calls are given as the source filed them.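 The calls were made as follows: active = fitted half-maximal inhibitory concentration AC50 at most ten times the top concentration tested; inconclusive = flat fit with 30 to 70% inhibition, or unusable fit; inactive = AC50 above ten times the top concentration.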
Classes used: true (1) for active, false (0) for inactive

| Compound | Group |
| --- | --- |
| CCCN1CCc2nc(SCc3nc(-c4ccc(OC)cc4OC)oc3C)[nH]c(=O)c2C1 | false (0) |
| CCC1c2ccc(C)n2CCN1C(=O)Nc1ccccc1C(=O)OC (stereo not given) | true (1) |
| Cc1cccc(Nc2nc(C(=O)Nc3cc(F)ccc3F)nc3ccccc23)c1 | true (1) |
| O=C(NC1CC1)c1cc(-c2ccco2)nc2ccccc12 | true (1) |
| Cc1ccccc1C(=O)Nc1cnc(N2CCC(C(N)=O)(N3CCCCC3)CC2)c(C(=O)O)c1 | true (1) |

Origin of values: PubChem BioAssay AID1259342
